Experiment: NOD1 signaling inhibitors, primary screen, cell-based, luminescence, uHTS (AID 1578);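 also: HEK-293T reporter cells stimulated with the NOD1 agonist gamma-tri-DAP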
Conditions: NOD1-driven NF-kB luciferase reporter cells, at 4 µM
In all, about 290,000 compounds went through this assay and about 3,000 (1%) were called active. Rule as the data show it: active = inhibition mostly above about 36% (no sharp cut-off); inactive = mostly below about 34%. This is one part of a sample in which actives are shown more often than they occur.
Assign a class; possible classes are active, inactive

Exercise: How was `O=C(c1cc2sccc2n1Cc1ccccc1)N1CCCc2ccccc21` classified in this test?
Key: active

Exercise: Another compound to check: `COc1ccc(OCC(=O)N2CCc3ccccc3C2)cc1`
Key: inactive

Exercise: Another compound to check: `COc1cc(CNc2ccc(C(=O)O)cc2)cc(Br)c1OCC(=O)NC(C)(C)C`
Key: inactive

Exercise: Another compound to check: `CCCc1cc(=O)[nH]c(/N=C(\N)Nc2ccccc2)n1`
Key: inactive

Exercise: Another compound to check: Cc1ccc2c(c1)C1CN(C)CCC1N2C(=S)NC(=O)c1ccc(Cl)cc1Cl (configuration not stated)
Key: inactive

Exercise: Another compound to check: `CCCNC(=O)c1ccc(S(=O)(=O)c2ccc(OC)cc2)c([N+](=O)[O-])c1`
Key: active

Exercise: Another compound to check: `COc1ccc(C(=O)NCCNc2ccc([N+](=O)[O-])cc2)cc1`
Key: inactive

Exercise: Another compound to check: `COc1cc(/C=C/C(=O)OCC(=O)Nc2cc(C)c(C)cc2[N+](=O)[O-])ccc1O`
Key: inactive

Exercise: Another compound to check: `O=S(=O)(N/N=C\c1c(F)cccc1Cl)c1ccc(Cl)cc1`
Key: inactive

Exercise: Another compound to check: `O=C(CSc1nc2ccccc2s1)NNC(=S)Nc1ccc(Cl)cc1`
Key: inactive

Exercise: Another compound to check: O=C(NCC(Cl)c1ccc2ccccc2c1)c1c(F)cccc1F (configuration not stated)
Key: active

Exercise: Another compound to check: `CCOc1cc(CNc2ccccc2)cc(Br)c1OCC(=O)NC(C)(C)C`
Key: inactive

Exercise: Another compound to check: CCOC(=O)C1=C(C)N=C2c3ccccc3C(=O)C2C1c1ccc(Br)cc1 (configuration not stated)
Key: active

Exercise: Another compound to check: CCOC(=O)C1=C(C)N=C2c3ccccc3C(=O)C2C1c1ccc(Cl)cc1 (configuration not stated)
Key: inactive

Exercise: Another compound to check: O=C1CSC(c2ccccc2F)N1CCN1CCCCC1 (configuration not stated)
Key: inactive

Exercise: Another compound to check: CC(CN1C(C)CCCC1C)OC(=O)c1ccc(Cl)cc1Cl (configuration not stated)
Key: inactive

Exercise: Another compound to check: CCn1cc(CN2CCc3c([nH]c4ccccc34)C2c2ccc(F)c(OC)c2)c(C)n1 (configuration not stated)
Key: inactive

Exercise: Another compound to check: `COc1cc(C)c(C)cc1S(=O)(=O)n1c(C)nc2ccccc21`
Key: inactive

Exercise: Another compound to check: `COc1cc(CNc2cccc(C(=O)O)c2)cc(Br)c1OCC(=O)NC(C)(C)C`
Key: active

Exercise: Another compound to check: `O=C(c1cc2sccc2n1Cc1ccccc1)N1CCc2ccccc21`
Key: inactive

Exercise: Another compound to check: Cc1ccc2c(c1)C1CN(C)CCC1N2C(=S)NC(=O)c1ccc(Br)cc1 (configuration not stated)
Key: active

Exercise: Another compound to check: `Cc1ccc(OCC(=O)N2CCc3ccccc3C2)cc1`
Key: inactive

---

Experiment: NOD1 signaling inhibitors, primary screen, cell-based, luminescence, uHTS (AID 1578);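 also: HEK-293T reporter cells stimulated with the NOD1 agonist gamma-tri-DAP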
Conditions: NOD1-driven NF-kB luciferase reporter cells, at 4 µM
Hit rate of the full screen: of about 290,000 compounds, about 3,000 (1%) were called active. Cut-off read from the data, not from the text of the source: active = inhibition mostly above about 36% (no sharp cut-off); inactive = mostly below about 34%. The entries come from a sample that favours actives as a whole.
Assign a class; possible classes are active, inactive

Exercise: How was `Cc1c(C(=O)NN2CCOCC2)oc2c1ccc1ccccc12` classified in this test?
Key: inactive

Exercise: Another compound to check: `COC(=O)Nc1ccc(C)c(NC(=O)OC)c1`
Key: inactive

Exercise: Another compound to check: `CCOc1ccc(-c2nnc3n2N=C(c2ccc(OC)cc2)CS3)cc1`
Key: inactive

Exercise: Another compound to check: `C#CCNC(=O)/C=C/c1ccc(C)cc1`
Key: inactive

Exercise: Another compound to check: `CCOC(=O)c1c(-c2ccc(C)o2)csc1NC(=O)CN1CCOCC1`
Key: inactive

Exercise: Another compound to check: `CCOC(=O)/C(=C\c1ccc(OC(F)F)cc1)C1=Nn2c(nnc2-c2ccc(Cl)cc2)SC1`
Key: active

Exercise: Another compound to check: `CC1=CC(=O)C(C(C)C)=C/C1=C(\c1cc(C(C)C)c(OP(=O)(O)O)cc1C)c1ccccc1C(=O)O`
Key: active

Exercise: Another compound to check: `O=C(NC12CC3CC(CC(C3)C1)C2)N1CCN(c2ccccc2)CC1`
Key: inactive

Exercise: Another compound to check: `CCOc1ccc(C(=O)c2ccccc2C(=O)O)cc1OCC`
Key: inactive

Exercise: Another compound to check: `CCOC(=O)Cc1ccc(NC(=O)c2ccc([N+](=O)[O-])cc2)cc1`
Key: inactive

Exercise: Another compound to check: `COc1ccc(-c2nnc3n2N=C(C)CS3)cc1`
Key: inactive

---

Assay: NOD1 signaling inhibitors, primary screen, cell-based, luminescence, uHTS (AID 1578);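 also: HEK-293T reporter cells stimulated with the NOD1 agonist gamma-tri-DAP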
Details: NOD1-driven NF-kB luciferase reporter cells, at 4 µM, active compounds read high
The whole screen tested about 290,000 compounds, of which about 3,000 (1%) were called active. Shown is part of a subset that was picked to be rich in actives.
Mark fulfilled for reported inhibition of -20% or greater; mark not fulfilled for anything smaller.

Exercise: Hi, just wondering whether `CN(c1ccc(C(=O)NCCC2=CCCCC2)cc1)S(C)(=O)=O` shows inhibition of -20% or higher.
Key: fulfilled

Exercise: Another compound to check: `Cc1cc(C(=O)O/N=C(\N)c2ccc(C(C)(C)C)cc2)no1`
Key: fulfilled

Exercise: Another compound to check: `O=C(c1ccccn1)c1conc1C(=O)c1ccc(Br)cc1`
Key: fulfilled

Exercise: Another compound to check: `O=C(CN1C(=O)NC2(CCCCC2)C1=O)N1CCN(S(=O)(=O)c2ccccc2)CC1`
Key: not fulfilled

Exercise: Another compound to check: `Cc1cc(C2=NNC(=NC3CCCCC3)SC2)c(C)n1-c1c(C)n(C)n(-c2ccccc2)c1=O`
Key: fulfilled

Exercise: Another compound to check: Cc1cccc(C)c1NC(=O)CCCN1C(=O)C(c2ccccc2)Oc2cccnc21 (stereo not given)
Key: fulfilled

Exercise: Another compound to check: `C/C(=N\NC(=O)c1ccccc1O)c1cccs1`
Key: fulfilled

Exercise: Another compound to check: `CCc1nc(C(N)=O)c2[nH]c(=O)n(-c3ccccc3F)c2n1`
Key: fulfilled

Exercise: Another compound to check: O=C(C1COc2ccccc2O1)N1CCCC1 (stereo not given)
Key: fulfilled

Exercise: Another compound to check: `Cc1cccc(C(=O)N=c2sccn2C)c1[N+](=O)[O-]`
Key: not fulfilled

Exercise: Another compound to check: `O=C(CSCc1ccc(Cl)cc1)Nc1ccccc1O`
Key: not fulfilled

Exercise: Another compound to check: `O=c1cc(-c2ccc3c(c2)OCO3)oc2ccccc12`
Key: not fulfilled

Exercise: Another compound to check: CC1CCCN(S(=O)(=O)c2ccc(NC(=O)Cn3nnc(-c4ccccc4F)n3)cc2)C1 (stereo not given)
Key: not fulfilled

Exercise: Another compound to check: CCOc1ccc(CCNC(=O)C2CCC(=O)N2C2CCCCC2)cc1OCC (stereo not given)
Key: fulfilled

Exercise: Another compound to check: `O=S(=O)(Nc1nc2ccccc2[nH]1)c1ccc2ccccc2c1`
Key: fulfilled

Exercise: Another compound to check: `COc1ccc(-c2[nH]c(-c3ccc(C)cc3)nc2SCC(=O)Nc2nccs2)cc1`
Key: fulfilled

Exercise: Another compound to check: C=C1CCC[C@]2(C)C[C@H]3OC(=O)C(CN(C)CC(OC)OC)[C@H]3CC12 (stereo not given in full)
Key: fulfilled

Exercise: Another compound to check: `CCN=C1NN=C(c2cc(C)n(CCc3ccccc3)c2C)CS1`
Key: fulfilled

Exercise: Another compound to check: CC(CC(=O)N(C)C1CCCCC1)S(=O)(=O)c1ccc2c(c1)NC(=O)CO2 (stereo not given)
Key: fulfilled

Exercise: Another compound to check: `O=C(O)CCC(=O)Nc1cccc(-c2nnc(-c3ccccc3)o2)c1`
Key: fulfilled

Exercise: Another compound to check: `CC(C)(C)NC(=O)N1CCCN(c2ccc(C(F)(F)F)cn2)CC1`
Key: fulfilled

Exercise: Another compound to check: `COC(=O)c1cccc(NC(=O)CCSc2ccc(Cl)cc2)c1C`
Key: fulfilled

Exercise: Another compound to check: `CC(C)CCNC(=O)c1nn(Cc2ccccc2)c(=O)c2ccccc12`
Key: fulfilled

Exercise: Another compound to check: `Cc1noc(-c2ccc(Cl)cc2)c1C(=O)O/N=C(\N)c1ccc(C(C)(C)C)cc1`
Key: fulfilled

Exercise: Another compound to check: `CC(=O)Nc1ccc(NC(=O)Cc2ccc(-c3ccccc3)cc2)cc1`
Key: fulfilled

Exercise: Another compound to check: `COCCn1c(Cc2ccccc2)nnc1SCC(=O)Nc1cc(C)on1`
Key: not fulfilled

Exercise: Another compound to check: O=C(C1COc2ccccc2O1)N1CCc2ccccc2C1 (stereo not given)
Key: fulfilled

Exercise: Another compound to check: `CS(=O)(=O)Nc1nc2ccccc2[nH]1`
Key: fulfilled

Exercise: Another compound to check: `COc1cc2c3nnc(-c4ccc(F)cc4)c-3cn(Cc3ccc(C)cc3)c2cc1OC`
Key: not fulfilled

Exercise: Another compound to check: `C/C(=N\NC(=O)c1ccoc1C)c1ccc(Br)s1`
Key: fulfilled

Exercise: Another compound to check: O=C(C1COc2ccccc2O1)N1CCc2ccccc21 (stereo not given)
Key: not fulfilled

Exercise: Another compound to check: `CCNC(=S)Nc1ccc(N(c2ccccc2)C(C)C)cc1`
Key: fulfilled

Exercise: Another compound to check: `CCC(=O)NNC(=O)CCC(=O)Nc1ccc(C)cc1C`
Key: not fulfilled

Exercise: Another compound to check: `CCCN(Cc1cc2cc(C)ccc2[nH]c1=O)S(C)(=O)=O`
Key: fulfilled

Exercise: Another compound to check: `C/C(=N\NC(=O)c1ccccc1O)c1ccc(Br)s1`
Key: fulfilled

Exercise: Another compound to check: `CCCCN(C(=O)/C=C/c1ccc(OCC(C)C)c(OCC)c1)c1c(N)n(CCC)c(=O)[nH]c1=O`
Key: not fulfilled

Exercise: Another compound to check: `CS(=O)(=O)N(Cc1ccc(Cl)cc1)c1ccc(C(=O)NCCC2=CCCCC2)cc1`
Key: fulfilled

Exercise: Another compound to check: O=C(CN(C(=O)c1ccccc1Cl)N1C(=O)C2C3C=CC(C3)C2C1=O)c1cccs1 (stereo not given)
Key: fulfilled

Exercise: Another compound to check: `COc1cc(/C=N/n2nnnc2Nc2ccccc2)cc(OC)c1OC`
Key: not fulfilled

Exercise: Another compound to check: `COCCCN=C1NN=C(c2cc(C)n(Cc3ccco3)c2C)CS1`
Key: fulfilled

Exercise: Another compound to check: `Cc1ccc(NC(=S)N(Cc2ccc(Br)cc2)Cc2ccc(C(=O)O)cc2)cc1C`
Key: not fulfilled

Exercise: Another compound to check: `COc1ccc(Cn2cc3c(-c4ccc(F)cc4)nnc-3c3cc(OC)c(OC)cc32)cc1`
Key: fulfilled

Exercise: Another compound to check: `O=C(CCl)Nc1ccc(-c2ccccc2)cc1`
Key: fulfilled

Exercise: Another compound to check: `CCOc1ccc(NC(=O)CSc2nnc(N)s2)c([N+](=O)[O-])c1`
Key: not fulfilled

Exercise: Another compound to check: `Nc1c(N2CCCC2)c2ccccc2oc1=O`
Key: fulfilled
